Origin of measurements: patent US20240279190A1

- assay-target: wt12-LOX (Homo sapiens, UniProt P18054)
- Sequence (P18054 1-663): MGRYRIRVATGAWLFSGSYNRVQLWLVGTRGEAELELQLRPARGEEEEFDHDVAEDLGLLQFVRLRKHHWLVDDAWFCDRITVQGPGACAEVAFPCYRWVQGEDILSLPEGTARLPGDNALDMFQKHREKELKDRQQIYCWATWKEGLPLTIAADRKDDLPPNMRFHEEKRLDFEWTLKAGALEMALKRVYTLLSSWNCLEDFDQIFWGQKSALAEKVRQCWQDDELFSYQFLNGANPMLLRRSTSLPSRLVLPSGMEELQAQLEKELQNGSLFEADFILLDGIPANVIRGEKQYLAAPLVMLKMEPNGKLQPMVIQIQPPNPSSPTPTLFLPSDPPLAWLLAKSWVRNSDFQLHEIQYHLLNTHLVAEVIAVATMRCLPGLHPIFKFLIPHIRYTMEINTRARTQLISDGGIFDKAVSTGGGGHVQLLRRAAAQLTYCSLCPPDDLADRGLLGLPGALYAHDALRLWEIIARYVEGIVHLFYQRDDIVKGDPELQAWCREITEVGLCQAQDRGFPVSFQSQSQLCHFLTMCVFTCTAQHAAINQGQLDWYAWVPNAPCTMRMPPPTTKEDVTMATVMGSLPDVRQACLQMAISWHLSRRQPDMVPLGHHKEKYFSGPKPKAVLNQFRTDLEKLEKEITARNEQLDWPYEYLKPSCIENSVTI
pIC50: −log10 of the molar value.
assay-readout: pIC50

> print(dat)
                            compound.smiles  result.number
1  COc1cccc(CNc2ccc(S(=O)(=O)Nc3nc4c(ccc5ccccc54)s3)cc2)c1O           7.30

###

- assay-target: 12-LOX mutant F352L (Homo sapiens, UniProt P18054, F352L)
- Construct: 6xHis (N); pFastBac1 shuttle vector
- Sequence (P18054 1-663 F352L): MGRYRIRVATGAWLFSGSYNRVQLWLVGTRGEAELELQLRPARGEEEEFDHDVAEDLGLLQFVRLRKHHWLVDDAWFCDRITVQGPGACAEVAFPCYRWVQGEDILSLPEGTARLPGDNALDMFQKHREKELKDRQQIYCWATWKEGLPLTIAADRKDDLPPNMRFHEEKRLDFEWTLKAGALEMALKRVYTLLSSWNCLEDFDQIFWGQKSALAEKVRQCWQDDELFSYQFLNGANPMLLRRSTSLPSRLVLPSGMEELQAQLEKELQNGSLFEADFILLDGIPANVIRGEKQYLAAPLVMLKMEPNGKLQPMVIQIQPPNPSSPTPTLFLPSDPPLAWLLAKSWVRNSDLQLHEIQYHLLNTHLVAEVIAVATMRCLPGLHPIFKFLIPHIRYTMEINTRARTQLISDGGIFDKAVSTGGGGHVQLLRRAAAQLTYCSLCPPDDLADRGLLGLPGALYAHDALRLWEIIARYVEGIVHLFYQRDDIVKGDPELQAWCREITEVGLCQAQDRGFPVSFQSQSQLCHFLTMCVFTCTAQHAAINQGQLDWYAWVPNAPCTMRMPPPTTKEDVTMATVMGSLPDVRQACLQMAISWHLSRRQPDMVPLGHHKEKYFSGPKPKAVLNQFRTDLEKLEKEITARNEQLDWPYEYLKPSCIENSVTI
- protocol-text: UV-Vis-based IC50 assay, F352L mutant
- condition-notes: F352L
assay-readout: IC50 (nM)

> print(dat)
                            compound.smiles  assay.readout  result.number
1  COc1cccc(CNc2ccc(S(=O)(=O)Nc3nc4c(ccc5ccccc54)s3)cc2)c1O           IC50            490
